# protocol_description: physchem
# Format: physicochemical
# condition_details: pH 7.4
Exam item: assign Y to entries whose Log D pH 7.4 is below 4 and N to entries at or above 4. Note that a value of exactly 4 receives N.

Below, 2 molecules whose answers are already recorded.
molecule	group
CC(C)=CCC12OC1C(O)c1ccccc1C2=O (stereo not drawn) [compound 38]	Y
CCCC=Cc1ccc2c(c1)C(=O)C1(CC=C(C)C)OC1C2O (stereo not drawn) [ent‐36]	N

Asked: Record CCCC=Cc1cc2c(cn1)C(O)C1OC1(CC=C(C)C)C2=O (stereo not drawn) [ent‐27] : is its Log D pH 7.4 strictly below 4?
Given back: N

Asked: Record CC(C)=CCC12OC1C(O)c1ccccc1C2=O (stereo not drawn) [ent‐37] : is its Log D pH 7.4 strictly below 4?
Given back: Y

Asked: Record CCCC=Cc1ccc2c(c1)C(=O)C1(CC=C(C)C)OC1C2O (stereo not drawn) [ent‐35] : is its Log D pH 7.4 strictly below 4?
Given back: N

Asked: Record CC(C)=CCC12OC1C(O)c1ccccc1C2=O (stereo not drawn) [compound 2, (−)‐avicennone C, reference compound] : is its Log D pH 7.4 strictly below 4?
Given back: Y

====

# protocol_description: Microsomal stability, mouse
# Format: in vitro ADME
# condition_details: mouse, pooled liver microsomes, pH 7.4, mouse liver microsomes 0.5 mg/mL; 1 µM compound; read-out: Microsomal stability CLint, Mouse
For each record, write down the corresponding microsomal CLint at 1 µM.
Numbers only, in µL/min/mg.

molecule	microsomal CLint at 1 µM, µL/min/mg
CCC/C=C/c1cc2c(cn1)[C@H](O)[C@H]1O[C@@]1(CC=C(C)C)C2=O	1500
CCC/C=C/c1cc2c(cn1)[C@@H](O)[C@H]1O[C@@]1(CC=C(C)C)C2=O	349
CCCC=Cc1ccc2c(c1)C(=O)C1(CC=C(C)C)OC1C2O (stereo not shown)	1040

For the next question, use this molecule.
Asked: Tell me measured microsomal CLint at 1 µM for `CCC/C=C/c1ccc2c(c1)C(=O)[C@]1(CC=C(C)C)O[C@@H]1[C@H]2O` please.
Given back: 259

====

For each record, write down the corresponding Microsomal stability CLint, Human.
# protocol_description: Microsomal stability, human
# Type: in vitro ADME
# condition_details: human liver microsomes 0.5 mg/mL; 1 µM compound

Illustrative cases are given below, each with its answer.
compound	Microsomal stability CLint, Human
CCCC=Cc1ccc2c(c1)C(=O)C1(CC=C(C)C)OC1C2O (stereo not drawn) [ent‐36]	29.9 μL/min/mg protein
CC(C)=CCC12OC1C(O)c1ccccc1C2=O (stereo not shown) [compound 38]	76.0 μL/min/mg protein
CC(C)=CCC12OC1C(O)c1ccccc1C2=O (stereo not shown) [compound 37]	54.6 μL/min/mg protein
CC(C)=CCC12OC1C(O)c1ccccc1C2=O (stereo not drawn) [compound 2, (−)‐avicennone C, reference compound]	150 μL/min/mg protein
CCCC=Cc1ccc2c(c1)C(=O)C1(CC=C(C)C)OC1C2O (stereo not drawn) [ent‐35]	40.5 μL/min/mg protein
CC(C)=CCC12OC1C(O)c1ccccc1C2=O (stereo not drawn) [ent‐37]	73.5 μL/min/mg protein

For the next question, use this compound.
Asked: Tell me measured Microsomal stability CLint, Human for CCCC=Cc1cc2c(cn1)C(O)C1OC1(CC=C(C)C)C2=O (stereo not shown) please.
Given back: 44.3 μL/min/mg protein

====

For each record, write down the corresponding Caco‐2 permeability recovery +Elacridar.
# System: Caco-2 cells
# protocol_description: Cellular permeability assay utilizing Caco2 cell line
# condition_details: A2B in the presence of elacridar; 10 µM; 120 min
Answers are plain numbers, in %.

Illustrative cases are given below, each with its answer.
compound	observation_type	unit_abbrev	reported
CCC/C=C/c1cc2c(cn1)[C@@H](O)[C@H]1O[C@@]1(CC=C(C)C)C2=O [compound 4]	Caco‐2 permeability recovery +Elacridar	%	14.2
CC(C)=CCC12OC1C(O)c1ccccc1C2=O (centres unmarked) [compound 37]	Caco‐2 permeability recovery +Elacridar	%	80.9
CC(C)=CCC12OC1C(O)c1ccccc1C2=O (stereo not drawn) [compound 2, (−)‐avicennone C, reference compound]	Caco‐2 permeability recovery +Elacridar	%	83.4

For the next question, use this compound.
Asked: Tell me measured Caco‐2 permeability recovery +Elacridar for CCCC=Cc1ccc2c(c1)C(=O)C1(CC=C(C)C)OC1C2O (stereo not drawn) [ent‐36] please.
Given back: 12.0

====

# Tested on: HepG2 cells
# protocol_description: Cytotoxicity on HepG2 cells (CellTiterGlo)
# Format: cell-based
# condition_details: 40 h
observation_type: Cytotoxicity TC50 HepG2

molecule	Cytotoxicity TC50 HepG2
CCCC=Cc1ccc2c(c1)C(=O)C1(CC=C(C)C)OC1C2O (stereo not drawn) [ent‐35]	14.7 µM
CC(C)=CCC12OC1C(O)c1ccccc1C2=O (stereo not drawn) [compound 2, (−)‐avicennone C, reference compound]	>30 µM
CCC/C=C/c1cc2c(cn1)[C@H](O)[C@H]1O[C@@]1(CC=C(C)C)C2=O	10.7 µM
CCCC=Cc1cc2c(cn1)C(O)C1OC1(CC=C(C)C)C2=O (stereo not drawn) [ent‐4]	5.97 µM
CC(C)=CCC12OC1C(O)c1ccccc1C2=O (stereo not drawn) [compound 37]	30 µM
CCC/C=C/c1cc2c(cn1)[C@@H](O)[C@H]1O[C@@]1(CC=C(C)C)C2=O	4.5 µM
CC(C)=CCC12OC1C(O)c1ccccc1C2=O (stereo not drawn) [ent‐37]	30 µM
CCCC=Cc1ccc2c(c1)C(=O)C1(CC=C(C)C)OC1C2O (stereo not drawn) [ent‐36]	11.3 µM
CCC/C=C/c1ccc2c(c1)C(=O)[C@]1(CC=C(C)C)O[C@@H]1[C@H]2O	16.1 µM
CCCC=Cc1cc2c(cn1)C(O)C1OC1(CC=C(C)C)C2=O (stereo not drawn) [ent‐27]	10.4 µM

Your task in this section: give Cytotoxicity TC50 HepG2 for each listed record.
1. CCCC=Cc1ccc2c(c1)C(=O)C1(CC=C(C)C)OC1C2O (stereo not drawn) [compound 35]
2. CC(C)=CCC12OC1C(O)c1ccccc1C2=O (stereo not drawn) [compound 38]

Given back:
9.39 µM
9.49 µM

====

# protocol_description: physchem
# Assay type: physicochemical
# condition_details: pH 7.4, Log D pH 7.4
For each record, write down the corresponding chromatographic logD.
Give bare numbers.

Illustrative cases are given below, each with its answer.
compound	observation_type	reported
CCC/C=C/c1ccc2c(c1)C(=O)[C@]1(CC=C(C)C)O[C@@H]1[C@H]2O	chromatographic logD	4.73
CC(C)=CCC12OC1C(O)c1ccccc1C2=O (stereo not shown)	chromatographic logD	2.82
CCC/C=C/c1cc2c(cn1)[C@@H](O)[C@H]1O[C@@]1(CC=C(C)C)C2=O	chromatographic logD	4.01
CCCC=Cc1ccc2c(c1)C(=O)C1(CC=C(C)C)OC1C2O (stereo not shown)	chromatographic logD	4.7
CCC/C=C/C=C/C1=C(CO)[C@@H](O)[C@H]2O[C@@]2(CC=C(C)C)C1=O	chromatographic logD	4.11

Your task in this section: give chromatographic logD for each listed record.
1. CCCC=Cc1cc2c(cn1)C(O)C1OC1(CC=C(C)C)C2=O (stereo not shown)
2. CCC/C=C/c1cc2c(cn1)[C@H](O)[C@H]1O[C@@]1(CC=C(C)C)C2=O

Given back:
1. 3.97
2. 4.14

====

# Tested on: Caco-2 cells
# protocol_description: Cellular permeability assay utilizing Caco2 cell line
# condition_details: A2B; 10 µM; 120 min
For each record, write down the corresponding Caco‐2 permeability Papp A2B.

compound	Caco‐2 permeability Papp A2B
CCCC=Cc1ccc2c(c1)C(=O)C1(CC=C(C)C)OC1C2O (stereo not drawn) [ent‐36]	8.55 10^−7 cm s^−1
CCCC=Cc1cc2c(cn1)C(O)C1OC1(CC=C(C)C)C2=O (stereo not drawn) [ent‐27]	40.5 10^−7 cm s^−1

For the next question, use this compound.
Asked: Tell me measured Caco‐2 permeability Papp A2B for CC(C)=CCC12OC1C(O)c1ccccc1C2=O (stereo not drawn) [compound 38] please.
Given back: 620 10^−7 cm s^−1
